All figures here come from PubChem BioAssay (Tox21).

- methodNotes: qHTS assay for small molecule agonists of the antioxidant response element (ARE) signaling pathway (AID 743202); as to activation: % is scaled to controls: 0 for no effect and ±100 for the full control effect
- conditionSummary: HepG2 ARE-bla reporter, beta-lactamase FRET, 16 h; series mostly up to 73.3 µM
Results filed as inconclusive are left out. Active and inactive are the calls of the source. Calls follow the shape of the dose curve; as a rule, active = well fitted activation curve with a large enough effect in the signal ratio in the repeat runs (not every such curve was filed as active); inconclusive = weak or mixed curves, or effect the other way; inactive = no such curve, though single readings can be large or run the other way; the % refers to the signal ratio.
Valid outcomes are listed here; reply with one: active, inactive

Look over these answered cases.
compound=O=C1OC2(c3ccccc31)c1cc(I)c(O)c(I)c1Oc1c2cc(I)c(O)c1I assignedclass=inactive
compound=CC(C)[N+](C)(CCOC(=O)C1c2ccccc2Oc2ccccc21)C(C)C assignedclass=inactive
compound=c1ccc2c(c1)[nH]c1ccccc12 assignedclass=inactive
compound=COC(=O)c1ccc(C)cc1 assignedclass=inactive
compound=Nc1ccc(N)c(Cl)c1 assignedclass=active
compound=CCCCCCOCCOCCO assignedclass=inactive

Identify the outcome logged in this assay for the compound shown: C1COCCN1
inactive

Identify the outcome logged in this assay for the compound shown: CC1(C)OC(=O)NC1=O
inactive

Identify the outcome logged in this assay for the compound shown: CNC[C@H](O)c1ccc(O)c(O)c1
inactive

Identify the outcome logged in this assay for the compound shown: CCc1cccc2c3c([nH]c12)C(CC)(CC(=O)O)OCC3 (stereo not given)
inactive

Identify the outcome logged in this assay for the compound shown: c1ccc2ncccc2c1
inactive

* * *

- methodNotes: qHTS assay to identify small molecule antagonists of the androgen receptor (AR) signaling pathway using the MDA cell line in the presence of 0.5 nM R1881 - cell viability counter screen (AID 1259242); also: % is scaled to controls: 0 for no effect and ±100 for the full control effect; nearly all actives have a fitted effect of over 45% in size
- conditionSummary: MDA-kb2 viability, CellTiter-Fluor protease fluorescence, 16 h; series mostly up to 92.4 µM
Results filed as inconclusive are left out. The source made the active and inactive calls. The call rests on the fitted dose curve; in most records, active means well fitted cell-killing curve with a large enough effect in the repeat runs; inconclusive means weak or mixed curves, or effect the other way; inactive means flat fitted curve, though single readings scatter.
Valid outcomes are listed here; reply with one: 1 for active, 0 for inactive

molecule="CCCCCCCCCCC(CO)CCCCCCCC (configuration not stated)" assignedclass=0
molecule=CC[C@]12CCCN3CCc4c(n(c5ccccc45)[C@@](O)(C(=O)OC)C1)[C@@H]32 assignedclass=0
molecule=Clc1ccc(Sc2cc(Cl)c(Cl)cc2Cl)cc1 assignedclass=0
molecule=C1CN(SSN2CCOCC2)CCO1 assignedclass=0
molecule="CC1(C)C(C=C(Cl)Cl)C1C(=O)OCc1cccc(Oc2ccccc2)c1 (configuration not stated)" assignedclass=0
molecule=Cc1ccc(C(C)(C)C)c(O)c1 assignedclass=0
molecule=Nc1ccc(N)c(Cl)c1 assignedclass=0
molecule=Cc1ccc2c(c1)C(=O)OC2=O assignedclass=0
molecule=Cc1ccc(S(=O)(=O)O)cc1C assignedclass=0
molecule=CCCCCC=O assignedclass=0

Identify the outcome logged in this assay for the molecule shown: CCCCCCCCCCCCO
0

Identify the outcome logged in this assay for the molecule shown: Cc1ccc(C)c(O)c1
0

Identify the outcome logged in this assay for the molecule shown: c1ccc2c(c1)ccc1ncccc12
0

Identify the outcome logged in this assay for the molecule shown: Cc1ccc(C(C)(C)C)cc1
0

Identify the outcome logged in this assay for the molecule shown: CCCCCCOCCOCCO
0

Identify the outcome logged in this assay for the molecule shown: Nc1cc(Cl)c(N)c(Cl)c1
0

* * *

- methodNotes: A CellTox Green Cytotoxicity Assay to monitor cytotoxicity in HEK293 cells - 24 hour (AID 1224875); also: % is scaled to controls: 0 for no effect and ±100 for the full control effect; nearly all actives have a fitted effect of over 45% in size
- conditionSummary: CellTox Green fluorescence; series mostly up to 76.8 µM
Inconclusive results are not listed. Calls of active or inactive are those of the source. Calls follow the shape of the dose curve; as a rule, active = well fitted activation curve with a large enough effect in the repeat runs; inconclusive = weak or mixed curves; inactive = flat fitted curve, though single readings scatter.
measurementKind: outcome

compound=O=S1(=O)CCCO1 measurementkind=outcome valuemeasured=inactive
compound=OCCNCCO measurementkind=outcome valuemeasured=inactive
compound=c1ccc2cc3ccccc3cc2c1 measurementkind=outcome valuemeasured=inactive
compound=Nc1ccc(O)c(N)c1 measurementkind=outcome valuemeasured=inactive
compound="COC(=O)C(C)Oc1ccc(Oc2ncc(C(F)(F)F)cc2Cl)cc1 (centres undefined)" measurementkind=outcome valuemeasured=inactive

Each compound below has a reported value. Please supply its outcome.
1. CC(=O)O[C@]1(C(C)=O)CC[C@H]2[C@@H]3C=C(Cl)C4=CC(=O)CC[C@]4(C)[C@H]3CC[C@@]21C
2. CN(Cc1cnc2nc(N)nc(N)c2n1)c1ccc(C(=O)N[C@@H](CCC(=O)O)C(=O)O)cc1

["inactive", "inactive"]
